Target: Protein farnesyltransferase (Homo sapiens, UniProt P49354+P49356)
Test: In vitro effective concentration against farnesyltransferase (FT); NA= Not active
Assay type: protein-complex assay
Property Name: EC50

Solved cases (4 shown):
Cn1cncc1C(OCc1c(-c2cccc(F)c2F)cc(C#N)c(=O)n1C)c1ccc(C#N)cc1 (stereo not given) :: Not Active
Cn1c(COC(c2ccc(C#N)cc2)c2c[nH]cn2)c(-c2cccc(Cl)c2)cc(C#N)c1=O (stereo not given) :: Not Active
Cn1c(COC(c2ccc(C#N)cc2)c2cncs2)c(-c2ccc(OC(F)(F)F)cc2)cc(C#N)c1=O (stereo not given) :: Not Active
Cn1cncc1C(OCc1c(-c2cc(Cl)cc(Cl)c2)cc(C#N)c(=O)n1C)c1ccc(C#N)c(-c2cccc(Cl)c2)c1 (stereo not given) :: Not Active

(Q) Need EC50 of Cn1cncc1C(OCc1c(-c2cccc(Cl)c2Cl)cc(C#N)c(=O)n1C)c1ccc(C#N)cc1 (stereo not given) , thanks.
(A) Not Active
